Cited source: PubChem BioAssay (NCI)

tested on: M14 melanoma; experiment: NCI-60 one-dose screen, 48 h; conditions: 10 µM unless noted
About 83,000 compounds went through this panel and 20% of them were active in at least one assay; those are over-represented in the sample as a whole. Calls of active or inactive are those of the source. Rule for the calls: active = growth percent below 10; inactive = the rest.
Return exactly one item of 1.0 = active, 0.0 = inactive

Here are 3 compounds together with their reported answers.
# COMPOUND, TESTED ON, GROUP
records = [
    ("CCOC(=O)c1cnn(CC(O)CC)c1NC(=O)NCc1ccccc1C(F)(F)F (centres undefined)", "M14 melanoma", 0.0),
    ("O=[N+]([O-])c1cc(C(F)(F)F)ccc1Sc1ccc(C(F)(F)F)cc1[N+](=O)[O-]", "M14 melanoma", 0.0),
    ("[2H]C([2H])([2H])Oc1cccc(/C=C/C(=O)/C=C(/C=C/c2cccc(OC([2H])([2H])[2H])c2OC([2H])([2H])[2H])OB(F)F)c1OC([2H])([2H])[2H]", "M14 melanoma", 0.0),
]

Please turn your attention to the following entry.
// param item: `COc1ccc2c(c1)oc1c(C)c3c(c(C)c12)C(=O)N(Nc1ccccc1)C3=O` ; yields the recorded call
0.0
